Data origin: patent US20260234242A1

Molecular target: T1, his-tagged human CDH6 extracellular region protein (hCDH6 ECD-his) (human, UniProt P55285 19-615)
T1 construct: also called Human CDH6-his; hCDH6-his; not shown: his tag
T1 sequence: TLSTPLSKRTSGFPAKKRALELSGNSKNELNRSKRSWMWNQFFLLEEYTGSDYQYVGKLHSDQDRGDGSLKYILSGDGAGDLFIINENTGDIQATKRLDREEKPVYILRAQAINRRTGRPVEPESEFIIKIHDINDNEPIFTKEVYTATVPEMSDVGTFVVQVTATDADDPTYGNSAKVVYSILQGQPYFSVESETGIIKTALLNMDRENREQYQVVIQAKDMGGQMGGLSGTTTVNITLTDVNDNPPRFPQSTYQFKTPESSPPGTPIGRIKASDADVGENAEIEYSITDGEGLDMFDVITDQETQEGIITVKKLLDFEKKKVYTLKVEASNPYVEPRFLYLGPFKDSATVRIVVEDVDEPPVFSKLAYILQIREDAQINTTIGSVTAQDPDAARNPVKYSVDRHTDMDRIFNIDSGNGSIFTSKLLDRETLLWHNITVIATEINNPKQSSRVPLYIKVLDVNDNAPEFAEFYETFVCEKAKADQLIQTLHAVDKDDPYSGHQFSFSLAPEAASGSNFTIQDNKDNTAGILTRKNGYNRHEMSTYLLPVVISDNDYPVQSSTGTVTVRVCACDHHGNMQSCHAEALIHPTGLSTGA
Test: ELISA, coated antigen
Task for the reader: assign each of the following binders its reported Max OD450.
Answers are plain numbers, in OD450.

Reference set (3 entries):
| binder | measured result |
| --- | --- |
| hCDH6-1-H1L1 (antibody, V domains shown, Humanized) VH: EVQLVQSGAEVKKPGSSVKVSCKASGYTFSNYWMHWVRQAPGQGLEWMGDIDPSHSETHYTQKFKDRVTITVDKSTSTAYMELSSLRSEDTAVYYCARGDLGRFDYWGQGTTVTVSS VL: DIVMTQSPDSLAVSLGERATINCRASESVSIHGTHLMHWYQQKPGQPPKLLIYAASNLESGVPDRFSGSGSETDFTLTISSLQAEDVAVYYCQQSFEDPWTFGGGTKVEIK | 2.8 |
| hCDH6-14-H1L1 (antibody, V domains shown, Humanized) VH: EVQLVQSGAEVKKPGASVKVSCKASGYTFTDNYINWVRQAPGQRLEWMGWIYPGTGNSYYNEKFKGRVTITVDTSASTAYMELSSLRSEDTAVYYCASSYGDSFDYWGQGTTVTVSS VL: DIQMTQSPSSLSASVGDRVTITCRASQDIRNYLNWYQQKPGKAFKLLISYTSRLHSGVPSRFSGSGSGTDFTFTISSLQPEDIATYYCQQYSQLPWTFGGGTKVEIK | 2.69 |
| hCDH6-14-H6L2 (antibody, V domains shown, Humanized) VH: EVQLVQSGAEVKKPGASVKVSCKASGYTFTDNYINWVRQAPGQRLEWMGWIYPGTGNSYYNEKFKGRVTITVDTSASTAYMELSSLRSEDTAVYLCASSYGDSFDYWGQGTTVTVSS VL: DIQMTQSPSSLSASVGDRVTITCRASQDIRNYLNWYQQKPGGAPKLLISYTSRLHSGVPSRFSGSGSGTDFTFTISSLQPEDIATYYCQQYSQLPWTFGGGTKVEIK | 2.62 |

// for each binder below, give its Max OD450
1. hCDH6-1-H4L2 (antibody, V domains shown, Humanized) VH: EVQLVQSGAEVKKPGSSVKVSCKASGYTFTNYWMHWVRQRPGQGLEWMGDIDPSHSETHYTQKFKDRVTITVDKSTSTAYMELSSLRSEDTAVYYCARGDLGRFDYWGQGTTVTVSS VL: DIVMTQSPDSLAVSLGERATINCRASESVSIHGTHLMHWYQQKSGQPPKLLIYAASNLESGVPDRFSGSGSETDFTLTISSLQAEDVAVYYCQQSFEDPWTFGGGTKVEIK
2. hCDH6-14-H2L2 (antibody, V domains shown, Humanized) VH: EIQLVQSGAEVKKPGASVKVSCKASGYTFTDNYINWVRQAPGQRLEWMGWIYPGTGNSYYNEKFKGRVTITVDTSASTAYMELSSLRSEDTAVYYCASSYGDSFDYWGQGTTVTVSS VL: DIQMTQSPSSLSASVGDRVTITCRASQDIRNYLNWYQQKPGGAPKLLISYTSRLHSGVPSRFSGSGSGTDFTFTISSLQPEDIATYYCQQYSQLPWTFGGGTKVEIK
3. hCDH6-14-H2L3 (antibody, V domains shown, Humanized) VH: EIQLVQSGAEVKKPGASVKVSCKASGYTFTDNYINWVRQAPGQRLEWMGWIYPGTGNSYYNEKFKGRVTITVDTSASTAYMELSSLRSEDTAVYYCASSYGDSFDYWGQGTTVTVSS VL: DIVMTQSPDSLAVSLGERATINCRASQDIRNYLNWYQQKPGQTPKLLISYTSRLHSGVPDRFSGSGSGTDFTLTISSLQAEDVAVYYCQQYSQLPWTFGGGTKVEIK
4. hCDH6-1-H2L2 (antibody, V domains shown, Humanized) VH: EVQLVQSGAEVKKPGSSVKVSCKASGYTFTNYWMHWVRQAPGQGLEWMGDIDPSHSETHYTQKFKDRVTITVDKSTSTAYMELSSLRSEDTAVYYCARGDLGRFDYWGQGTTVTVSS VL: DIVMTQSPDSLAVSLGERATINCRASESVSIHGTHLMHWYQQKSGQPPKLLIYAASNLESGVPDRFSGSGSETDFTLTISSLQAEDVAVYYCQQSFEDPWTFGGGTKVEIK
5. hCDH6-14-H5L3 (antibody, V domains shown, Humanized) VH: EVQLQQSGAEVKKPGASVKVSCKASGYTFTDNYINWVRQAPGQRLEWMGWIYPGTGNSYYNEKFKGRVTITVDTSASTAYMELSSLRSEDTAVYYCASSYGDSFDYWGQGTTVTVSS VL: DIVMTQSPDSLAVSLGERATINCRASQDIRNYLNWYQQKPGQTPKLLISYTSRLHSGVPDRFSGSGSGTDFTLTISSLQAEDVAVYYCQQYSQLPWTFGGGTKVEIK
6. hCDH6-1-H2L1 (antibody, V domains shown, Humanized) VH: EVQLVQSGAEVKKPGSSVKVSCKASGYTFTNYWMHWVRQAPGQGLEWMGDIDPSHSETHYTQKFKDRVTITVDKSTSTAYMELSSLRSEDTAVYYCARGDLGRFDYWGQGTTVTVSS VL: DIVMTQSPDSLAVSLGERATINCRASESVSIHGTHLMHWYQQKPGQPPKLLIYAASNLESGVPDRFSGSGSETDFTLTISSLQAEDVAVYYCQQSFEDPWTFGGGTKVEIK
7. hCDH6-14-H4L2 (antibody, V domains shown, Humanized) VH: EVQLVQSGAEVKKPGASVKVSCKASGYTFTDNYINWVRQAPGQGLEWMGWIYPGTGNSYYNEKFKGRVTITVDTSASTAYMELSSLRSEDTAVYYCASSYGDSFDYWGQGTTVTVSS VL: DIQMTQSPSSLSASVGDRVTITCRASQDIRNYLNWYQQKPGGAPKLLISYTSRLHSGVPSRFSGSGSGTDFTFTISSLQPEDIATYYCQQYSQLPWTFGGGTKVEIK

1. 2.55
2. 2.54
3. 2.48
4. 2.63
5. 2.72
6. 2.65
7. 2.64
